assay details: qHTS assay to identify small molecule antagonists of the estrogen related receptor signaling pathway with the pleiotropic PPARgamma coactivator (PGC) from Tox21 10K library (AID 1224841); note: actives are mostly falling curves and most rising ones were filed inactive; nearly all actives have a fitted effect of over 50% in size
test context: PGC/ERR reporter cell line, ONE-Glo luciferase, 18 h; series mostly up to 92.4 µM
Results filed as inconclusive are left out. Active and inactive are the calls of the source. The rule behind the calls is not given here.
value kind: Potency

Solved cases below.
{"compound": "CCOC(=O)COc1ccc2c(c1)CC(NCC(O)c1cccc(Cl)c1)CC2 (stereo not drawn)", "Potency": "inactive"}
{"compound": "COc1cc(C)ccc1C(C)C", "Potency": "inactive"}
{"compound": "COc1ccccc1N1CCN(CCCNc2cc(=O)n(C)c(=O)n2C)CC1", "Potency": "inactive"}
{"compound": "CCOC(=O)C1CC(=O)C(=C(O)C2CC2)C(=O)C1 (stereo not drawn)", "Potency": "inactive"}

(Q) Provide measured Potency value, entry: CCCCCCn1c(=O)c2c(ncn2C)n(C)c1=O
(A) inactive

(Q) Identify measured Potency corresponding to CCOC(=O)NCCC[Si](OCC)(OCC)OCC
(A) inactive

(Q) Retrieve Potency measured for CCCCNCCCC and print it.
(A) inactive

(Q) Quick one: give measured Potency for CCc1cc(Cl)c(OC)c(C(=O)NC[C@@H]2CCCN2CC)c1O
(A) inactive

(Q) Please give measured Potency of the following entry: COC(=O)c1ccc(OC)cc1
(A) inactive

(Q) Please report Potency for the following compound: CCCCCCCCCCCCOCCOS(=O)(=O)O
(A) inactive

(Q) Give recorded Potency. CCC(=O)O[C@]1(C(=O)SCF)[C@H](C)C[C@H]2[C@@H]3C[C@H](F)C4=CC(=O)C=C[C@]4(C)[C@@]3(F)[C@@H](O)C[C@@]21C
(A) inactive

(Q) Determine its reported Potency: O=C1CCN(c2ccccc2)N1
(A) inactive

(Q) For the compound O=C1C=CC(=O)O1 , report Potency.
(A) inactive

(Q) // fetch Potency given entry CCOc1ccc(NC(N)=O)cc1
(A) inactive

(Q) Fill in reported Potency for this entry: Clc1cccc(-c2cc(Cl)cc(Cl)c2)c1
(A) inactive

(Q) Quickly give me recorded Potency for O=C(O)[C@@H](O)[C@H](O)[C@H](O)[C@@H](O)C(=O)O
(A) inactive
